Quick list: relative permittivity at zero frequency per entry.
Test description: relative permittivity at zero frequency (dimensionless); xn = mol fraction of the nth substance listed
Test settings: 323.15 K; 101 kPa; Liquid; dielectric analyzer; x1 = 0.2
± gives the expanded uncertainty stated by the source.

Molecule	relative permittivity at zero frequency
CN(CCO)CCO [N-methyldiethanolamine] + O	43.98 ± 0.88
CC(C)(N)CO [2-amino-2-methylpropan-1-ol] + O	44.31 ± 0.89
CC(O)CNCC(C)O (stereo not given) [N-(2-hydroxypropyl)-2-hydroxy-1-propanamine] + O	37.74 ± 0.75
OCCNCCO [diethanolamine] + O	46.78 ± 0.94

Kindly review the next molecule as well.
Task: Please report the recorded relative permittivity at zero frequency for OCCN(CCO)CCO [triethanolamine] + O .
Output: 45.45 ± 0.91
